assay: Solubility in organic solvents; type: physicochemical; conditions: methanol, organic solvent or mixture; read-out: Solubility, Methanol
MEASURED_PARAMETER: solubility (mg/mL)

a. CC(C)c1ccc2sc3ccccc3c(=O)c2c1
b. CC(C)c1cc(C(C)C)c2sc3ccccc3c(=O)c2c1
Problem: Compare the recorded solubility of a and b ; state which is larger. Give the label of your selection.
Solution: b

###

test: Solubility in organic solvents; assay type: physicochemical; settings: 1,2-dichloropropane, organic solvent or mixture; read-out: Solubility, 1,2-Dichloropropane
// reported solubility for each item listed

Consider the worked cases shown below.
Problem: Quick check: solubility of CC(C)c1cc(C(C)C)c2sc3ccccc3c(=O)c2c1 ?
Solution: > 500 mg/mL

Problem: Quick check: solubility of O=c1c2ccccc2sc2ccccc12 ?
Solution: < 5 mg/mL

Problem: Quick check: solubility of CC(C)c1ccc2sc3ccccc3c(=O)c2c1 ?
Solution: > 500 mg/mL

Next:
Problem: Quick check: solubility of Cc1ccc2sc3ccccc3c(=O)c2c1 ?
Solution: 77 mg/mL
